B1: CPEB3 Ribozyme (parent)
chain: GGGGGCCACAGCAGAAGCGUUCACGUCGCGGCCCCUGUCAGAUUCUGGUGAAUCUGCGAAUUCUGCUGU

Variants of: B1
method_summary: self-cleavage, relative activity (ratio to wild type); higher = more cleavage; co-transcriptional
measured_quantity: self-cleavage

input_sequence: GGCGGCUACAGCAGAAGCGUUCACGUCGCGGCCCCUGUCAGAUUCUGGUGAAUCUGCGAAUUCUGCUGU [G3C C7U]
measured_quantity: self-cleavage
experimental_result: 0.102
//
input_sequence: GGGGGCCACAGCAGAAGCGUUCACGUCGCGCCCCCUGUCAGAUUCUGGUGAAUCUGCGAAUUCUUCUGU [G31C G65U]
measured_quantity: self-cleavage
experimental_result: 0.136
//
input_sequence: GGGGGCCACAGCAGACGCGUUCGCGUCGCGGCCCCUGUCAGAUUCUGGUGAAUCUGCGAAUUCUGCUGU [A16C A23G]
measured_quantity: self-cleavage
experimental_result: 0.0786
//
input_sequence: GGGGACCACAGCAGAAGCGUUCACGUCGCGGCCCCUGUCAGAUUCUGGUGAAUCUGCGACUUCUGCUGU [G5A A60C]
measured_quantity: self-cleavage
experimental_result: 0.251
//
input_sequence: GGGGGCCACAGCAGAAGCGUUCACGUCGCGGCCCCUGUCACAUUCUGGUGAAUCUGCGAAUUCUUCUGU [G41C G65U]
measured_quantity: self-cleavage
experimental_result: 0.327
//
input_sequence: GGGGGCCACAGCAGAAGCGUUCACGUCGCGGCCUCUGUCAGAUUCUCGUGAAUCUGCGAAUUCUGCUGU [C34U G47C]
measured_quantity: self-cleavage
experimental_result: 0.968
//
input_sequence: GGGGGCCACAGCAGAAACGUUCACGUCGCGGCCCCUGUCAGAUUCCGGUGAAUCUGCGAAUUCUGCUGU [G17A U46C]
measured_quantity: self-cleavage
experimental_result: 0.417
//
input_sequence: GGGGGCCACAGCAGAAGCGUUCACGUCGCGGCCCCUGUCAGAUUCUGGUGAAUCUGCGAAUUUUGCUAU [C63U G68A]
measured_quantity: self-cleavage
experimental_result: 0.967
//
input_sequence: GGGGGCUACAGCAGAAGCGUUCACGUCGCGGCCCCUGUCAGAUUCUGGUGAAUCUGCGAAUUCUGCUCU [C7U G68C]
measured_quantity: self-cleavage
experimental_result: 0.673
//
input_sequence: GGGGGCCACAGCGGAAGCGUUCACUUCGCGGCCCCUGUCAGAUUCUGGUGAAUCUGCGAAUUCUGCUGU [A13G G25U]
measured_quantity: self-cleavage
experimental_result: 0.118
//
input_sequence: GGGGGCCACAGCAGAAGCGUUCACGUCGCGGCCACUGUCACAUUCUGGUGAAUCUGCGAAUUCUGCUGU [C34A G41C]
measured_quantity: self-cleavage
experimental_result: 0.33
//
input_sequence: GGGGGCCACAGAAGAAGCGUUCACGUCGCGGCCCCUGUCAGAUUCUGGUGAAUCUGCUAAUUCUGCUGU [C12A G58U]
measured_quantity: self-cleavage
experimental_result: 0.843
//
input_sequence: GGGGGCCACAGCAGAAGCGUUCACGUCGGGGCCCGUGUCAGAUUCUGGUGAAUCUGCGAAUUCUGCUGU [C29G C35G]
measured_quantity: self-cleavage
experimental_result: 0.301
//
input_sequence: GGGGGCCACAGCAAAAGCGUUCACGUCGCGGCCCCUGUCAGAUUCUGGUGAAUCUGCGAAUUCCGCUGU [G14A U64C]
measured_quantity: self-cleavage
experimental_result: 0.346
//
input_sequence: GGGGGCCACAGCAGAAGCGUUCACGUCGCGGCCCAUGUCAGGUUCUGGUGAAUCUGCGAAUUCUGCUGU [C35A A42G]
measured_quantity: self-cleavage
experimental_result: 0.281
//
input_sequence: GGGGGCCACAGCAGAAGCGUUCACGUCGCGCCCCUUGUCAGAUUCUGGUGAAUCUGCGAAUUCUGCUGU [G31C C35U]
measured_quantity: self-cleavage
experimental_result: 0.189
//
input_sequence: GGGGUCCACAGCAGAAGCGUUCACGUCGCGGCCCCUGUCAGAUUCUGGUGAAUCUGCGAAUUCCGCUGU [G5U U64C]
measured_quantity: self-cleavage
experimental_result: 0.195
//
input_sequence: GGGGGCCACAGCAGAAGCGUUCACGUCGCGGCCCCUGUCUGUUUCUGGUGAAUCUGCGAAUUCUGCUGU [A40U A42U]
measured_quantity: self-cleavage
experimental_result: 0.46
//
input_sequence: GGGGGCCACAGCAGAAGCGUUCACGUCGCGGCCCCUGUCAGCUUCUGGUGAAUCUGCGAAUUCUGCUGU [A42C]
measured_quantity: self-cleavage
experimental_result: 0.961
//
input_sequence: GGGGGCGACAGCAGAAGCGUUCACGUCGCGGCCCCCGUCAGAUUCUGGUGAAUCUGCGAAUUCUGCUGU [C7G U36C]
measured_quantity: self-cleavage
experimental_result: 0.0551
//
input_sequence: GGGGGCCACAGCAGAAGCGUUCACGUCGCGGCCCCUGACAGAUUCUGGUUAAUCUGCGAAUUCUGCUGU [U38A G50U]
measured_quantity: self-cleavage
experimental_result: 0.894
//
input_sequence: GGGGGUCACAGCAGAAGCGUUCACGUCGGGGCCCCUGUCAGAUUCUGGUGAAUCUGCGAAUUCUGCUGU [C6U C29G]
measured_quantity: self-cleavage
experimental_result: 0.259
//
input_sequence: GGGGGCCACAGCAGAAGCGUUCACGUCGCGGCCCCUGUCAGAUUCUGGUGAAUCAGCGAAUUCUGCUGC [U55A U69C]
measured_quantity: self-cleavage
experimental_result: 1.06
//
input_sequence: GGGGGCCACAGCAGAAGCGUUCACGUCGCGACCCCUGUCAGAUUCUGGUGAAUCUGCGCAUUCUGCUGU [G31A A59C]
measured_quantity: self-cleavage
experimental_result: 0.394
//
input_sequence: GGGGGCCACAGCAGAAGCGUUCACGUCGCGGAUCCUGUCAGAUUCUGGUGAAUCUGCGAAUUCUGCUGU [C32A C33U]
measured_quantity: self-cleavage
experimental_result: 0.231
//
input_sequence: GGGGGCCACAGCAGAAGCGUUCACGUCGCGGCCCCUGUCAGUUACUGGUGAAUCUGCGAAUUCUGCUGU [A42U U44A]
measured_quantity: self-cleavage
experimental_result: 0.898
//
input_sequence: GGGGGCCACAGCAGAAGCGUUCACGUCGUGGCCCCUGUCAGAUUCUGGUGAAUCUGCGAAUUCUGCCGU [C29U U67C]
measured_quantity: self-cleavage
experimental_result: 0.308
//
input_sequence: GGGGGCCACAGCAGAAGCGUUCACGUCGCGGCCCCUGUCAGGUUCUGGUGAAUCAGCGAAUUCUGCUGU [A42G U55A]
measured_quantity: self-cleavage
experimental_result: 0.543
//
input_sequence: GGGGACCACAGCACAAGCGUUCACGUCGCGGCCCCUGUCAGAUUCUGGUGAAUCUGCGAAUUCUGCUGU [G5A G14C]
measured_quantity: self-cleavage
experimental_result: 0.159
//
input_sequence: GGGGGCCACAGCAGAAGCGUUCACGUCGGGGCCCCUGUCAGAUUCUGGUGAAACUGCGAAUUCUGCUGU [C29G U53A]
measured_quantity: self-cleavage
experimental_result: 0.308
//
input_sequence: GGGGGCCACAGCAGAAGCGAUCACGUCGCGGCCCCUGUCACAUUCUGGUGAAUCUGCGAAUUCUGCUGU [U20A G41C]
measured_quantity: self-cleavage
experimental_result: 0.133
//
input_sequence: GGGGGACACAGCAGAAGCGUUCACGUCGCUGCCCCUGUCAGAUUCUGGUGAAUCUGCGAAUUCUGCUGU [C6A G30U]
measured_quantity: self-cleavage
experimental_result: 0.157
//
input_sequence: GGGGGCCACAGCAGAAGCGUUCACGUCGCGGACCCUGUCAGAUUCAGGUGAAUCUGCGAAUUCUGCUGU [C32A U46A]
measured_quantity: self-cleavage
experimental_result: 0.574
